Test system: K4 kissing-loop RNA reporter;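 further: bound reporter read as fluorescence of individual clusters on recovered sequencing chips by microscopy, with normalized cluster intensities fitted with a binding model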
Test: apparent KD of K4 kissing-loop reporter; higher = weaker reporter binding
Settings: Eterna round: R107; input ligand: none
MEASUREMENT NAME: apparent KD of K4 kissing-loop reporter (µM)
Field format: number, assumed µM, no unit text.

Solved entries (count: 4):
UAAUUUAUGUCUUUAAUAUAAUUUUCAGAUACCAGUGAUUAUUAACACCCUUGGCAGCUGUGUAGAGUGAUGUUCUCAUGCUUAA [#07 K4 Theophylline A Exclusion] : 0.365
AGUUCAGAGUGACUCGAUAAGAGUCACAAACGAGGACCGGUACGGCCGCCACUCGAAAUAACGAGAGUGAUGUUCUCGCUGGGCA [FiskerMod 2 - Jieux - Same State Tryptophan A] : 0.862
UUUUUAUGCAGUGAUGUUGCUAAUAUAACAGAGGAUAUGCAUUAAAGCAGAAGGCUGAAAUACUAUACUUUAAUAAAUUAAAUUU [JR_SSFMNA_Sub013] : 0.107
UAGCGGUAGAGGCCACCGCUAUUCUGAGAAGGAGCGCAGAUGACUGCAGGUAGGUCGCUUAGAGCUUGCAGUGAUGUUGCAAGUU [Tebete] : 0.179

Q: Tell me apparent KD of K4 kissing-loop reporter reported for UUCUACGAGUGAUGUUCGUAGUGUAAUAGCUAGGAUAUCGUUUUUUCGAGAAGGAGCUUCGAAGUGAUACGAAAGUAUCGCUUCG [FMN A 12]
A: 0.349

Q: Tell me apparent KD of K4 kissing-loop reporter reported for GUGCGGCUAGUGAUGUUGGUUGCGUGGGAAGGAGCGCAGAAACAUGCAGGUAGGUCGCCCACACCUCUGAAAGGAGGUUAAUUCA [Diusdige]
A: 0.133

====

Here, each record is paired with measured apparent KD of MS2 coat protein data.
Tested on: MS2 coat protein
Assay: apparent KD of MS2 coat protein; designed switch direction (-1 OFF switch, 1 ON switch): -1; higher = weaker reporter binding
Details: input ligand: FMN 200 uM
Field format: number, assumed nM, no unit text.

GCUGGACGAGGAUAUACAUGAGGAUCACCCAUGUGAUCAGCAGUCCUCGGACUGCAAUGUAGAAGGUGUCCAGC [E3/1-B2] (Eterna round: R97, puzzle: Exclusion 3) : 302
AAUGCCAGUGUCAGGAUAUCCGGAGGGAAACCUCCGGAGAAGGGACAUGAGGAUCACCCAUGUAUGUAACCUGC [AK-MS2ROC-r4-Bmoexclusion4-7] (Eterna round: R97, puzzle: Brourd's mod of Exclusion 4) : 35.2
AAGAAACAUGAGGAUCACCCAUGUGAGGAUAUGAUAUGCUAAGCGUAAGCUUAGUAUAUCAGAAGGCACAAAGG [Salishxlusion 1 - Jieux - Exclusion 1] (Eterna round: R97, puzzle: Exclusion 1) : 319

Q: Give MS2 coat protein apparent KD of MS2 coat protein for the following sequence: CCCACAGGCUUUUUGCUCGACAUGAGGAUCACCCAUGUUGAAUGGGUUGUGUGUGUGUGAUACAUAUAUAUGGUCCU [-25.5, -50.5 kcal, A 21%] (Eterna round: R97, puzzle: Sensor, turn-off variant 1)
A: 142

Q: Give MS2 coat protein apparent KD of MS2 coat protein for the following sequence: CCCGUGUUAGGAUAUAUGGAAGAGCGGACGGGCGCUCCAAGGUAGAAGGAACAUGAGGAUCACCCAUGUAAUAA [Teleerdion] (Eterna round: R97, puzzle: Exclusion 4)
A: 42.6
